measured-on: mutant VR1 receptor Y511C (Homo sapiens, UniProt Q8NER1, Y511C)
method-notes: Calcium imaging with fura-2 in transfected HEK293 cells, low pH (pH 5.1) stimulus
stated-conditions: mutant VR1 receptor channel; read-out: IC50 for channel blocking activity
Method: The resulting sequence-verified mutant VR1 DNA was inserted into the pcDNA3.1 vector (Invitrogen). Human HEK293 cells were then transfected with the DNA, incubated at 37° C. for 24-48 hrs, and then analyzed for receptor response using calcium imaging techniques. Calcium imaging was performed using a Zeiss Axiovert 200M fluorescence microscope equipped with a Photonics Polychrome IV monochrometer fluorescence excitation system as well as a multivalve perfusion system for delivering drugs. […]
measured-attribute: IC50 (µM)

INSERT INTO results (compound, measured_attribute, unit_string, value_observed) VALUES
  ('O=C(Nc1ccc(C(F)(F)F)cc1)c1ccc(-c2ncccc2Cl)cc1 [Compound 18]', 'IC50', 'µM', 0.135);
